Assay: gradient 5% acetonitrile 3 min, to 50% in 2 min, to 85% in 15 min, held 3 min, 100 µL/min
Conditions: column: Zorbax Extend-C18 2.1 x 50 mm; eluents: water / acetonitrile, 0.1% formic acid
Quantity measured: RP-LC retention time (s)
Give bare numbers, in s.

Look over these answered cases.
Compound: COc1cccc(-n2c(=O)c(C(=O)Nc3cccc(Cl)c3)c(O)c3cccnc32)c1
RP-LC retention time (s): 1330
//
Compound: O=C(NCC1CCOCC1)c1nccc2ccccc12
RP-LC retention time (s): 717
//
Compound: COc1ccc(C2Nn3c(C)nnc3SC2C(=O)N2CCCCCC2)cc1Br (centres undefined)
RP-LC retention time (s): 794
//
Compound: CCOCCCNc1ccc(-c2nnc(-c3ccc(C)cc3)o2)cn1
RP-LC retention time (s): 801

Each compound below has a reported value. Please supply its RP-LC retention time.
1. CCCn1c(C(=O)NCCc2ccc(S(N)(=O)=O)cc2)cc2c(=O)n(C)c(=O)n(C)c21
2. O=C(c1ccc2nsnc2c1)N(Cc1ccsc1)Cc1ccco1
3. O=C(CN1c2ccc(F)cc2-c2ccccc2S1(=O)=O)N1CCN(Cc2ccccc2)CC1
4. Cc1cc(C2CCCN2C(=O)Cc2cccc(F)c2)no1 (centres undefined)
5. Cc1cc2nn(CC(=O)N3CCc4ccccc43)c(=O)n2c(Nc2ccc(F)cc2)n1
6. CN1CCCN(C(=O)C2CC(=O)N(c3ccc4c(c3)CCN4C(=O)C3CC3)C2)CC1 (centres undefined)
7. CC1CCN(c2cc(-n3cnc(C(=O)N4CCOCC4)c3)ncn2)CC1

a:
1: 631; 2: 898; 3: 711; 4: 790; 5: 1030; 6: 564; 7: 750

Each compound below has a reported value. Please supply its RP-LC retention time.
1. Cc1ccc(S(=O)(=O)Nc2nc3ccccc3nc2Nc2ccc3nsnc3c2)cc1
2. O=C(CSc1nnc2c3sc(N4CCCC4)nc3ncn12)Nc1ccc(F)c(F)c1
3. CCNc1nc(NCC)n2c(SCC(=O)c3cccc(Br)c3)nnc2n1
4. COc1cccc(-c2ccnc3nc(Cc4ccc(F)cc4)nn23)c1
5. CCOC1CCN(C(=O)Nc2ccccc2C)CC1
6. Cc1cc(N2CCN(C(=O)Nc3cccc(C)c3C)CC2)nc(N2CCOCC2)n1
7. CCCNc1cc(N2CCC(CCC(=O)N(C)CCC)CC2)ncn1
8. Cc1ccc(NC(=O)c2ncn3c2C(=O)N(C2CC2)C(C)(C(=O)NC2CCCC2)C3)c(Cl)c1 (centres undefined)

a:
1: 1220; 2: 863; 3: 680; 4: 922; 5: 732; 6: 633; 7: 589; 8: 864

Each compound below has a reported value. Please supply its RP-LC retention time.
1. CCOc1ccc(-c2nc(-c3ccc4nnn(C)c4c3)no2)cc1
2. Cc1ccc(-c2nc(CN3CCSCC3)c(C)o2)cc1
3. Cc1ccc(N2CCN(Cc3nc(-c4ccc(N5CCCCC5)nc4)no3)CC2)cc1

a:
1. 1070
2. 680
3. 901

Each compound below has a reported value. Please supply its RP-LC retention time.
1. COc1cc(NS(=O)(=O)c2ccc3c(c2)-c2oncc2CO3)cc(OC)c1OC
2. CNC(=O)Nc1cccc(-c2ccc(OC)nn2)c1

a:
1: 805; 2: 631

// provenance: the METLIN SMRT retention time set (Domingo-Almenara et al. 2019)
